# Acetylcholinesterase (Bos taurus, UniProt P23795): pIC50 values follow
# Sequence (P23795 whole entry): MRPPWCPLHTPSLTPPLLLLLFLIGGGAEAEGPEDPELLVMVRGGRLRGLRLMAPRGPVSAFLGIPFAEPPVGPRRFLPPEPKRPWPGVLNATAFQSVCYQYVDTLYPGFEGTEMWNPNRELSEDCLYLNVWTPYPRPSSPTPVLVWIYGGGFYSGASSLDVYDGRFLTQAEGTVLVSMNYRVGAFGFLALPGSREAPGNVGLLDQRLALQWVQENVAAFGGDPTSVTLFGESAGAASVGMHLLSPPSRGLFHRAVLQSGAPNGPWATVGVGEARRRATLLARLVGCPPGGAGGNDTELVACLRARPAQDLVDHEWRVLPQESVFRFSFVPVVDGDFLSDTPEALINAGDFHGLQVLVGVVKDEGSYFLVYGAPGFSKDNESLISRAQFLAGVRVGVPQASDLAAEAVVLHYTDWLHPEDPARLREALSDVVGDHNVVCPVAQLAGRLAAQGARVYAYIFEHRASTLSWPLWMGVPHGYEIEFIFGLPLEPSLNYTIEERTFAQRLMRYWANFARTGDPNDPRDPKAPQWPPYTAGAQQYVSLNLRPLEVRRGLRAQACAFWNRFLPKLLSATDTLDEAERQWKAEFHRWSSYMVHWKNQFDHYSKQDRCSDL
pIC50: −log10 of the molar value.
READOUT LABEL: pIC50

smiles_str=COc1cc2oc(C(=O)NCCCCCCCCCCNc3c4c(nc5ccccc35)CCCC4)cc(=O)c2cc1OC.Cl readout_label=pIC50 readout_value=7.07
smiles_str=O=C(NCCCCCCCCCCNc1c2c(nc3cc(Cl)cc(Cl)c13)CCCC2)c1cc(=O)c2cc(O)c(O)cc2o1 readout_label=pIC50 readout_value=7.05
smiles_str=COc1cc(O)c2c(=O)cc(C(=O)NCCCCCCCCCCNc3c4c(nc5cc(Cl)cc(Cl)c35)CCCC4)oc2c1 readout_label=pIC50 readout_value=7.10
smiles_str=COc1cc(OC)c2c(=O)cc(C(=O)NCCCCCCCCCCNc3c4c(nc5ccccc35)CCCC4)oc2c1.Cl readout_label=pIC50 readout_value=7.00
